Reference for the values: patent US9839642B2

# Study target: NDM-1 (Klebsiella pneumoniae, UniProt C7C422)
# Sequence (C7C422 29-270, looked up, species assumed): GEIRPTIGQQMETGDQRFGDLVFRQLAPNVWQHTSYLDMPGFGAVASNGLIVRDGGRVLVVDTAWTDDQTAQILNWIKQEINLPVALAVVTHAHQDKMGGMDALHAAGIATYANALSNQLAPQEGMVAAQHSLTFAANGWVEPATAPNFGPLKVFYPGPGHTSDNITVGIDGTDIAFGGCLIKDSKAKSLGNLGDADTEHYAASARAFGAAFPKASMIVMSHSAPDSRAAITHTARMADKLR
# Protocol notes: Enzyme activity: determination of IC50, fluorescence assay with CCF2-FA substrate
# Type: biochemical
# Condition summary: NDM-1 enzyme 1 pM, CCF2-FA 1.25 μM, 2 hours at 25° C.; read-out: NDM1 IC50
Attribute measured: pIC50
Conceptually, pIC50 converts a concentration in mol/L into minus its log10.

**Q:** Given CCC[C@H](C(=O)O)[C@H](Cc1cccc(N2CCNC(=O)C2)c1)c1nn[nH]n1 , state its recorded pIC50.
**A:** 5.85

**Q:** # iterate: CCC[C@H](C(=O)O)[C@H](CCc1ccccc1)c1nnn[nH]1
**A:** 6.72

**Q:** Next entry: CCC[C@H](C(=O)O)[C@H](Cc1ccc(COCCN2CCOCC2)cc1)c1nn[nH]n1
**A:** 6.74

**Q:** Proceed to CCC[C@H](C(=O)O)[C@H](Cc1ccc(-c2cnn(Cc3ccncc3)c2)cc1)c1nnn[nH]1
**A:** 8.02

**Q:** One more compound: CC(C)C[C@H](C(=O)O)[C@H](Cc1ccc(Oc2ccc(CCN)cc2)nc1)c1nn[nH]n1 [Example 392]
**A:** 7.31

**Q:** CC(C)(C)[C@H](C(=O)O)[C@H](Cc1cccc2sc(N)nc12)c1nnn[nH]1 ?
**A:** 8.57

**Q:** What about this compound? O=C(O)[C@@H](CCCC1CCNCC1)[C@H](Cc1ccc(C2CCNC2)cc1)c1nnn[nH]1 (stereo partly shown)
**A:** 7.17

**Q:** Consider next the compound CCC[C@H](C(=O)O)[C@H](Cc1nnc(N)s1)c1nnn[nH]1 in the same way.
**A:** 4.89

**Q:** Record: CC(C[C@H](C(=O)O)[C@H](Cc1ccc(N)nc1)c1nnn[nH]1)c1ccccc1 (stereo partly shown)
**A:** 6.64

**Q:** Item: CC(C)C[C@H](C(=O)O)[C@H](Cc1ccc(N2CC3(CCNC3)C2)nc1)c1nnn[nH]1
**A:** 6.74
